# measuredTarget: CFTR ΔF508 (Homo sapiens, UniProt P13569, DEL508-508)
# Sequence (P13569 with tags, fused parts or gaps DEL508-508): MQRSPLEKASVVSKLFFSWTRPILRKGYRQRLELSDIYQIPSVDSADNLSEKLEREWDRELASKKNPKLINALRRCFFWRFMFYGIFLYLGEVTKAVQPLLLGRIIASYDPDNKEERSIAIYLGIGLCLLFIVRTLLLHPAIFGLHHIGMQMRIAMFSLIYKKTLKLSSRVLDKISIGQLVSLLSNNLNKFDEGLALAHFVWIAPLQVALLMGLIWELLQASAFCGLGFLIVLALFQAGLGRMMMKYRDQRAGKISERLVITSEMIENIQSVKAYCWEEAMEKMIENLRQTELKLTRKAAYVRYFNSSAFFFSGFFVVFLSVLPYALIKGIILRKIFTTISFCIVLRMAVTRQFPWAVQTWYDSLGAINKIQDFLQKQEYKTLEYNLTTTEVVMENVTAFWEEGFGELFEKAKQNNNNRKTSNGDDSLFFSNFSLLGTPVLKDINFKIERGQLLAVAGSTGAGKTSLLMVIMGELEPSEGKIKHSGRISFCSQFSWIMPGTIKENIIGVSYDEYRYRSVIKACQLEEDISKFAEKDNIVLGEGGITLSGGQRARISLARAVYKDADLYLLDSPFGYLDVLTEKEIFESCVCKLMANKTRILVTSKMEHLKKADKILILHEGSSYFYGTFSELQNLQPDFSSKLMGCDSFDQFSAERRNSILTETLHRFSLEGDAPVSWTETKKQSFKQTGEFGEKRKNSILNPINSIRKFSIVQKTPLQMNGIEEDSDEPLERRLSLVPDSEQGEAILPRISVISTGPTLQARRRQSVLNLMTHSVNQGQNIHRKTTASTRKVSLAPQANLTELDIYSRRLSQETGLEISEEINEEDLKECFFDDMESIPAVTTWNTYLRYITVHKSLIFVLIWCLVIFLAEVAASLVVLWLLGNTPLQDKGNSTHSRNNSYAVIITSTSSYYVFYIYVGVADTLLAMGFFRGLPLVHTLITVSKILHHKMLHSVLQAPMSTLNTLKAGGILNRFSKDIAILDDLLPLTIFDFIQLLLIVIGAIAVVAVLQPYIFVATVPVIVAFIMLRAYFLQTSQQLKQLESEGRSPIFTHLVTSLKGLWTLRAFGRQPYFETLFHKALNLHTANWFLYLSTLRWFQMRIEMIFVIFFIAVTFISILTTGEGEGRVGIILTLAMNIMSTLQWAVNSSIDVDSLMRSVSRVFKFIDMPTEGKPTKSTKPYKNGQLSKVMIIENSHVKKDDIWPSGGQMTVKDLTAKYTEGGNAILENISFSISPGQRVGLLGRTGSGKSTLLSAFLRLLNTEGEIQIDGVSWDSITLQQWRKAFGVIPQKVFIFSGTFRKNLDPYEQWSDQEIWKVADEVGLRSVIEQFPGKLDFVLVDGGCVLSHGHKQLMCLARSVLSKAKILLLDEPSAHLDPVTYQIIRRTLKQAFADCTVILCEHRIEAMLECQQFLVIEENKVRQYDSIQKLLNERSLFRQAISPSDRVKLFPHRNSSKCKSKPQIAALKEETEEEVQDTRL
# testDescription: TECC assay, primary bronchial epithelial cells from CF patients homozygous for CFTR ΔF508
# runParameters: primary bronchial epithelial cells, CFTR ΔF508; several values in a cell = repeat determinations
pEC50: −log10 of the molar value.
measurementType: pEC50

>  <smilesEntry>
CC1(C)Cc2c(sc(NC(=O)c3ccn[nH]3)c2C(N)=O)C(C)(C)O1

>  <measuredTarget>
CFTR ΔF508 (Homo sapiens, UniProt P13569, DEL508-508)

>  <measurementType>
pEC50

>  <observed>
7.43

$$$$
>  <smilesEntry>
COCc1c[nH]nc1C(=O)Nc1sc2c(c1C(N)=O)CC(C)(C)OC2(C)C

>  <measuredTarget>
CFTR ΔF508 (Homo sapiens, UniProt P13569, DEL508-508)

>  <measurementType>
pEC50

>  <observed>
7.26

$$$$
>  <smilesEntry>
CC1(C)Cc2c(sc(NC(=O)c3ccc(F)cc3O)c2C(N)=O)C(C)(C)O1

>  <measuredTarget>
CFTR ΔF508 (Homo sapiens, UniProt P13569, DEL508-508)

>  <measurementType>
pEC50

>  <observed>
7.79

$$$$
>  <smilesEntry>
CC1(C)Cc2c(sc(NC(=O)C3(O)CCOCC3)c2C(N)=O)C(C)(C)O1

>  <measuredTarget>
CFTR ΔF508 (Homo sapiens, UniProt P13569, DEL508-508)

>  <measurementType>
pEC50

>  <observed>
6.30

$$$$
